assay: in vitro; conditions: African green monkey, Cell viability (%), 1.25 μM

SMILES_STR: O[C@H]1[C@H]2c3cc4c(cc3CN3CCC(=C[C@@H]1O)[C@H]23)OCO4
UNIT_SPEC: %
viability at 1.25 µM: 97.9
--
SMILES_STR: CC(=O)O[C@@H]1C[C@H]2C(C)(C)C(=O)C=C[C@]2(C)[C@H]2CC[C@@]3(C)[C@H](c4ccoc4)OC(=O)[C@H]4O[C@]43[C@@]21C
UNIT_SPEC: %
viability at 1.25 µM: 105
--
SMILES_STR: COc1ccc2cc1Oc1ccc(cc1)C[C@H]1c3cc(c(OC)cc3CCN1C)Oc1c(OC)c(OC)cc3c1[C@H](C2)N(C)CC3
UNIT_SPEC: %
viability at 1.25 µM: 101
--
SMILES_STR: O=C(CCCN1CCC2(CC1)C(=O)NCN2c1ccccc1)c1ccc(F)cc1
UNIT_SPEC: %
viability at 1.25 µM: 99.9
--
SMILES_STR: CNc1ccc2oc(C[C@H]3O[C@@]4(CC[C@H]3C)O[C@H]([C@H](C)C(=O)c3ccc[nH]3)[C@H](C)C[C@H]4C)nc2c1C(=O)O
UNIT_SPEC: %
viability at 1.25 µM: 98.6
--
SMILES_STR: CC[C@@]1([C@@H]2O[C@@H]([C@H]3O[C@@](O)(CO)[C@H](C)C[C@@H]3C)C[C@@H]2C)CC[C@H]([C@]2(C)CC[C@]3(C[C@H](O)[C@@H](C)[C@@H]([C@@H](C)[C@@H](OC)[C@H](C)C(=O)O)O3)O2)O1
UNIT_SPEC: %
viability at 1.25 µM: 113

Provenance of the data: paper PMC10541190
